pIC50: −log10 of the molar value.
Note to self: these compounds have pIC50 reported for Serine/threonine-protein kinase MRCK alpha (Homo sapiens) in various publications.

Consider the following illustrative entries.
• COc1ccc2c(c1)C[C@H](C(=O)Nc1ccc(-c3cn[nH]c3)cc1OCCN(C)C)NC2 = 5.27
• COc1ccc2c(c1)C[C@H](C(=O)Nc1ccc(-c3cn[nH]c3)cc1OCC1CCN(C)CC1)NC2 = 6.17
• COc1ccc([C@@H]2CN(C)C[C@H]2c2nc3ccc(-c4cn[nH]c4)cc3c(=O)[nH]2)cc1 = < 6.00
• O=c1[nH]c([C@@H]2CNC[C@H]2c2ccccc2)nc2ccc(-c3cn[nH]c3)cc12 = < 6.00
• COc1ccc(C(N)c2nc3ccc(-c4cn[nH]c4)cc3c(=O)[nH]2)cc1 (stereo unspecified) = < 6.00
• NC(c1cccc(Cl)c1)c1nc2ccc(-c3cn[nH]c3)cc2c(=O)[nH]1 (stereo unspecified) = < 6.00
• COc1ccc2c(c1)C[C@H](C(=O)Nc1ccc(-c3cn[nH]c3)cc1OCCN1CCCC1)CO2 = 5.89
• CNC(=O)c1cc(Oc2ccc(NC(=O)Nc3cc(C(C)(C)C)nn3-c3ccc4ncccc4c3)c(F)c2)ccn1 = < 6.00
• COc1ccc2c(c1)C[C@H](C(=O)Nc1ccc(-c3cn[nH]c3)cc1OCCCO)CO2 = 7.13
• COc1ccc2c(c1)C[C@@H](C(=O)Nc1ccc(-c3cn[nH]c3)cc1O[C@@H]1CCN(C)C1)CO2 = < 4.70

Please turn your attention to the following entry.
In one line, give reported pIC50 of the entry "COc1cccc(CN(CCN(C)C)C(=O)Nc2ccc(-c3cn[nH]c3)cc2)c1" .
5.06
